The values you see were collected from patent US10112935B2.

target: GST-tagged human ROCK1 catalytic domain 1-477 (Homo sapiens (Human), UniProt Q13464); experiment: Inhibition of Rho-associated protein kinase isoform 1 (LANCE Ultra ULight-CREBtide FRET kinase assay); assay type: biochemical; conditions: 30 μM was the highest concentration analyzed
Sequence (Q13464 1-477): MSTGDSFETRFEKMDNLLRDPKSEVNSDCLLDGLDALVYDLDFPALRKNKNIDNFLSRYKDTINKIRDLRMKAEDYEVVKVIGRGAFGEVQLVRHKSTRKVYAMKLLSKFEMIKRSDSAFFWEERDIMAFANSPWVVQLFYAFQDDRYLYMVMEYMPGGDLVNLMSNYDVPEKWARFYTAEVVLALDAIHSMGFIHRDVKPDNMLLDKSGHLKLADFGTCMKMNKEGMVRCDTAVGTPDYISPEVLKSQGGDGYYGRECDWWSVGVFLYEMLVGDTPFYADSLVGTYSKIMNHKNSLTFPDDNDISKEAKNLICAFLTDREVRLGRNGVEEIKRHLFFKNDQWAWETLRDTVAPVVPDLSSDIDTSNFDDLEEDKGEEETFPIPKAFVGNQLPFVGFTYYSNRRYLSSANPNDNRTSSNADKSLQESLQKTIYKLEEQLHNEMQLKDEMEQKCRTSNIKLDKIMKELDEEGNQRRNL
Listed here: items and their measured IC50.

Before answering, review these 7 worked examples.
{"Compound": "Fc1cc(-c2ncco2)cc(-c2nnc(Nc3ccc4[nH]ncc4c3Cl)s2)c1 [Example 46J]", "Measurement": "> 30 µM"}
{"Compound": "Cn1cc(C(=O)Nc2cc(-c3nnc(Nc4ccc5[nH]ncc5c4Cl)s3)ccc2Br)cn1 [Example 48Y]", "Measurement": "> 30 µM"}
{"Compound": "O=C(Nc1cccc(-c2nnc(Nc3ccc4[nH]ncc4c3F)s2)c1)c1c[nH]cn1 [Example 75N]", "Measurement": "> 30 µM"}
{"Compound": "O=C(Nc1cccc(-c2nnc(Nc3ccc4[nH]ncc4c3Cl)s2)c1)c1ccc(F)cc1 [Example 35AW]", "Measurement": "< 1 µM"}
{"Compound": "Cn1cc(C(=O)Nc2cc(-c3nnc(Nc4ccc5[nH]ncc5c4)s3)ccn2)cn1.O=C(O)C(F)(F)F [Example 35BY]", "Measurement": "> 30 µM"}
{"Compound": "c1cc(-c2nnc(Nc3ccc4[nH]ncc4c3)s2)cc(N2CCNCC2)c1 [Example 75H]", "Measurement": "> 30 µM"}
{"Compound": "CC(=O)Nc1cc(CC(=O)O)cc(-c2nnc(Nc3ccc4[nH]ncc4c3Cl)s2)c1 [Example 75S]", "Measurement": "< 1 µM"}

Query compound follows.
Please look up its IC50: O=C(O)C(F)(F)F.Oc1cccc(-c2cccc(-c3nnc(Nc4ccc5[nH]ncc5c4Cl)s3)c2)n1 [Example 46B]
> 30 µM
